# credit: the supplement of paper PMC8371130

# Test system: HL-1
# test_method_notes: relative cell viability (CellTiter-Glo) vs DMSO control (% of DMSO control); higher = more viable cells
# condition_context: oxygen condition: hypoxia 48 h (1% O2) + reoxygenation 24 h; 1000 nM
Where a name gives a salt, the structure may show the parent alone.
measured_endpoint: relative cell viability
Numbers only.

Request: Reported relative cell viability for COc1cccc2c1C(=O)c1c(O)c3c(c(O)c1C2=O)C[C@@](O)(C(C)=O)C[C@@H]3O[C@H]1C[C@H](N)[C@H](O)[C@H](C)O1 [Daunorubicin HCl] : what is it?
Result: 17.2

For every listed record, write down its relative cell viability.
1. CC(C)NCC(O)COc1ccc(CCOCC2CC2)cc1 (centres undefined) [Betaxolol hydrochloride]
2. CC(C)[C@H](N)C(=O)OCC(CO)OCn1cnc2c(=O)nc(N)[nH]c21 (some centres undefined) [valganciclovir hydrochloride]

Result:
106
107

Request: Any idea what its relative cell viability is? The molecule is CN1CCN(CCCN2c3ccccc3Sc3ccc(Cl)cc32)CC1 [Prochlorperazine Dimaleate]
Result: 106

====

# Test system: HL-1
# test_method_notes: relative cell viability (CellTiter-Glo) vs DMSO control (% of DMSO control); higher = more viable cells
# condition_context: oxygen condition: hypoxia 48 h (1% O2) + reoxygenation 24 h; 200 nM
Structures can show the parent of a compound that is named as a salt.
Mark Satisfied only when relative cell viability stays strictly below 100. Values equal to the cut-off are Not satisfied.

Reference set, count: 4
Request: Is relative cell viability of O=C(O)CCCN1CCC(O[C@@H](c2ccc(Cl)cc2)c2ccccn2)CC1 [Bepotastine Besilate] strictly below 100?
Result: Not satisfied

Request: Also Nc1nc2ccc(OC(F)(F)F)cc2s1 , if possible.
Result: Not satisfied

Request: Can you check O=c1[nH]cc(F)c(=O)[nH]1 next?
Result: Satisfied

Request: Same for CN1CCC(=C2c3ccccc3C=Cc3ccccc32)CC1 [Cyproheptadine HCl]
Result: Satisfied

Could you now consider this next compound?
Request: Please check: relative cell viability for CCOc1nc2cccc(C(=O)O)c2n1Cc1ccc(-c2ccccc2-c2nnn[nH]2)cc1 , strictly under 100 or not?
Result: Not satisfied

====

# System: HL-1
# test_method_notes: relative cell viability (CellTiter-Glo) vs DMSO control (% of DMSO control); higher = more viable cells
# condition_context: oxygen condition: normoxia 72 h; 40 nM
Counter-ions that a name gives are not always drawn.
measured_endpoint: relative cell viability
Answers are plain numbers.

Request: Data request, read-out relative cell viability, for C[C@]12CCC(=O)C=C1[C@@H]1C[C@@H]1[C@H]1[C@@H]3[C@@H]4C[C@@H]4[C@@]4(CCC(=O)O4)[C@@]3(C)CC[C@@H]12
Result: 103

Request: Again, but for CCOc1ccc2nc(S(N)(=O)=O)sc2c1 [Ethoxzolamide]
Result: 102

For each of the items listed, what is its relative cell viability?
1. OC[C@@H](O)[C@@H](O)[C@H](O)[C@H](O)CO
2. CN1CCN2c3ccccc3Cc3ccccc3C2C1 (stereo not drawn) [Mianserin hydrochloride]
3. CC(C)c1nc(CN(C)C(=O)N[C@@H](CCN2CCOCC2)C(=O)N[C@H](CC[C@H](Cc2ccccc2)NC(=O)OCc2cncs2)Cc2ccccc2)cs1 [Cobicistat]
4. CC1=NN(c2ccc(C)c(C)c2)C(=O)/C1=N\Nc1cccc(-c2cccc(C(=O)O)c2)c1O
5. CS(=O)(=O)CCNCc1ccc(-c2ccc3ncnc(Nc4ccc(OCc5cccc(F)c5)c(Cl)c4)c3c2)o1 [Lapatinib Ditosylate]
6. OC(CCN1CCCC1)(c1ccccc1)C1CCCCC1 (stereo not drawn) [Procyclidine HCl]
7. OCCN1C[C@H](O)[C@@H](O)[C@H](O)[C@H]1CO

Result:
[106, 63.6, 111, 106, 107, 101, 101]

For every listed record, write down its relative cell viability.
1. Cc1cccc(CN2CCN(C(c3ccccc3)c3ccc(Cl)cc3)CC2)c1 (stereo not drawn) [Meclizine 2HCl]
2. CC(C)(C)NC(=O)[C@H]1CC[C@H]2[C@@H]3CC[C@H]4NC(=O)C=C[C@]4(C)[C@H]3CC[C@]12C [Finasteride]
3. Cc1ccccc1N1C(=O)c2cc(S(N)(=O)=O)c(Cl)cc2NC1C (stereo not drawn)
4. CNS(=O)(=O)Cc1ccc2[nH]cc(CCN(C)C)c2c1 [Sumatriptan succinate]
5. O=c1oc2cc(O)ccc2s1
6. COC(=O)C1=C(C)NC(C)=C(C(=O)OCC(C)C)C1c1ccccc1[N+](=O)[O-] (stereo not drawn)
7. CNNCc1ccc(C(=O)NC(C)C)cc1 [Procarbazine HCl]
8. OCCOCCN1CCN(C(c2ccccc2)c2ccc(Cl)cc2)CC1 (stereo not drawn) [Hydroxyzine 2HCl]

Result:
101
115
109
102
107
99.2
97.6
102

Batch of 2 molecules: report relative cell viability for each.
1. CC(=O)OCC(CCn1cnc2cnc(N)nc21)COC(C)=O
2. CCOc1cc(N)c(Cl)cc1C(=O)NCC1CN(Cc2ccc(F)cc2)CCO1 (stereo not drawn) [Mosapride citrate]

Result:
106
104

Below are 2 molecules. Give each one its relative cell viability.
1. CNCCCC12CCC(c3ccccc31)c1ccccc12 [Maprotiline hydrochloride]
2. COc1ccc(C2C(=O)c3ccccc3C2=O)cc1

Result:
98.7
102

The following molecules each have a reported value; give each one's relative cell viability.
1. Cc1cn([C@H]2C[C@H](N=[N+]=[N-])[C@@H](CO)O2)c(=O)[nH]c1=O
2. CCOC(=O)[C@H](CCc1ccccc1)N[C@@H](C)C(=O)N1Cc2cc(OC)c(OC)cc2C[C@H]1C(=O)O [Moexipril HCl]
3. CNCC[C@H](Oc1cccc2ccccc12)c1cccs1 [Duloxetine HCl]
4. CC[C@H]1OC(=O)[C@H](C)[C@@H](O[C@H]2C[C@@](C)(OC)[C@@H](O)[C@H](C)O2)[C@H](C)[C@@H](O[C@@H]2O[C@H](C)C[C@H](N(C)C)[C@H]2O)[C@](C)(O)C[C@@H](C)CN(C)[C@H](C)[C@@H](O)[C@]1(C)O
5. CC(CCc1ccc(O)cc1)NCC(O)c1ccc(O)cc1 (stereo not drawn) [Ractopamine HCl]

Result:
[110, 100, 89.9, 105, 98.9]

# map each molecule to its relative cell viability
1. O=C(O)C1=CO[C@@H](O[C@@H]2O[C@H](CO)[C@@H](O)[C@H](O)[C@H]2O)[C@@H]2C(CO)=CC[C@H]12
2. Cc1cccc(Nc2ccccc2C(=O)O)c1C
3. O=C(O)/C=C/c1ccc(Cn2ccnc2)cc1 [Ozagrel HCl]
4. O=C(NCCN1CCOCC1)c1ccc(Cl)cc1 [Moclobemide]
5. CN(Cc1cnc2nc(N)nc(N)c2n1)c1ccc(C(=O)N[C@@H](CCC(=O)O)C(=O)O)cc1 [Abitrexate]
6. CN(C)CCCN1c2ccccc2Sc2ccc(Cl)cc21
7. N[C@H](Cc1ccccc1)C(=O)O

Result:
103
100
90.2
108
58.2
97.1
92
